Values compiled from the supplement of paper PMC5998384.

Tested on: HeLa Kyoto
Test: solubility change mitosis vs G1/S (difference of NP-40 vs SDS log2 ratios) (log2 ratio difference); higher = more soluble in mitosis
Use met when the recorded solubility change mitosis (log2) is no lower than -0.01; use not met when it is lower.

Task item: Could you tell me if the measured solubility change mitosis (log2) of MDVLAEANGTFALNLLKTLGKDNSKNVFFSPMSMSCALAMVYMGAKGNTAAQMAQILSFNKSGGGGDIHQGFQSLLTEVNKTGTQYLLRMANRLFGEKSCDFLSSFRDSCQKFYQAEMEELDFISAVEKSRKHINTWVAEKTEGKIAELLSPGSVDPLTRLVLVNAVYFRGNWDEQFDKENTEERLFKVSKNEEKPVQMMFKQSTFKKTYIGEIFTQILVLPYVGKELNMIIMLPDETTDLRTVEKELTYEKFVEWTRLDMMDEEEVEVSLPRFKLEESYDMESVLRNLGMTDAFELGKADFSGMSQTDLSLSKVVHKSFVEVNEEGTEAAAATAAIMMMRCARFVPRFCADHPFLFFIQHSKTNGILFCGRFSSP [SERPINB6] reaches -0.01 or more?
Reply: not met

Task item: Could you tell me if the measured solubility change mitosis (log2) of MAGKKVLIVYAHQEPKSFNGSLKNVAVDELSRQGCTVTVSDLYAMNLEPRATDKDITGTLSNPEVFNYGVETHEAYKQRSLASDITDEQKKVREADLVIFQFPLYWFSVPAILKGWMDRVLCQGFAFDIPGFYDSGLLQGKLALLSVTTGGTAEMYTKTGVNGDSRYFLWPLQHGTLHFCGFKVLAPQISFAPEIASEEERKGMVAAWSQRLQTIWKEEPIPCTAHWHFGQ [NQO2] reaches -0.01 or more?
Reply: not met

Task item: Could you tell me if the measured solubility change mitosis (log2) of MAATRSPTRARERERSGAPAAGSDQVHSWMLATSQALDTVWRMAKGFVMLAVSFLVAAICYFRRLHLYSGHKLKWWIGYLQRKFKRNLSVEAEVDLLSYCAREWKGETPRNKLMRKAYEELFWRHHIKCVRQVRRDNYDALRSVLFQIFSQGISFPSWMKEKDIVKLPEKLLFSQGCNWIQQYSFGPEKYTGSNVFGKLRKYVELLKTQWTEFNGIRDYHKRGSMCNTLFSDAILEYKLYEALKFIMLYQVTEVYEQMKTKKVIPSLFRLLFSRETSSDPLSFMMNHLNSVGDTCGLEQIDMFILGYSLEVKIKVFRLFKFNSRDFEVCYPEEPLRDWPEISLLTENDRHYHIPVF [FAM105A] reaches -0.01 or more?
Reply: not met

Task item: Could you tell me if the measured solubility change mitosis (log2) of MDPGKDKEGVPQPSGPPARKKFVIPLDEDEVPPGVAKPLFRSTQSLPTVDTSAQAAPQTYAEYAISQPLEGAGATCPTGSEPLAGETPNQALKPGAKSNSIIVSPRQRGNPVLKFVRNVPWEFGDVIPDYVLGQSTCALFLSLRYHNLHPDYIHGRLQSLGKNFALRVLLVQVDVKDPQQALKELAKMCILADCTLILAWSPEEAGRYLETYKAYEQKPADLLMEKLEQDFVSRVTECLTTVKSVNKTDSQTLLTTFGSLEQLIAASREDLALCPGLGPQKARRLFDVLHEPFLKVP [ERCC1] reaches -0.01 or more?
Reply: met

Task item: Could you tell me if the measured solubility change mitosis (log2) of MVVLSVPAEVTVILLDIEGTTTPIAFVKDILFPYIEENVKEYLQTHWEEEECQQDVSLLRKQAEEDAHLDGAVPIPAASGNGVDDLQQMIQAVVDNVCWQMSLDRKTTALKQLQGHMWRAAFTAGRMKAEFFADVVPAVRKWREAGMKVYIYSSGSVEAQKLLFGHSTEGDILELVDGHFDTKIGHKVESESYRKIADSIGCSTNNILFLTDVTREASAAEEADVHVAVVVRPGNAGLTDDEKTYYSLITSFSELYLPSST [ENOPH1] reaches -0.01 or more?
Reply: not met

Task item: Could you tell me if the measured solubility change mitosis (log2) of MEESGYESVLCVKPDVHVYRIPPRATNRGYRAAEWQLDQPSWSGRLRITAKGQMAYIKLEDRTSGELFAQAPVDQFPGTAVESVTDSSRYFVIRIEDGNGRRAFIGIGFGDRGDAFDFNVALQDHFKWVKQQCEFAKQAQNPDQGPKLDLGFKEGQTIKLNIANMKKKEGAAGNPRVRPASTGGLSLLPPPPGGKTSTLIPPPGEQLAVGGSLVQPAVAPSSGGAPVPWPQPNPATADIWGDFTKSTGSTSSQTQPGTGWVQF [NECAP2] reaches -0.01 or more?
Reply: not met

***
Task item: Could you tell me if the measured solubility change mitosis (log2) of MPALLERPKLSNAMARALHRHIMMERERKRQEEEEVDKMMEQKMKEEQERRKKKEMEERMSLEETKEQILKLEEKLLALQEEKHQLFLQLKKVLHEEEKRRRKEQSDLTTLTSAAYQQSLTVHTGTHLLSMQGSPGGHNRPGTLMAADRAKQMFGPQVLTTRHYVGSAAAFAGTPEHGQFQGSPGGAYGTAQPPPHYGPTQPAYSPSQQLRAPSAFPAVQYLSQPQPQPYAVHGHFQPTQTGFLQPGGALSLQKQMEHANQQTGFSDSSSLRPMHPQALHPAPGLLASPQLPVQMQPAGKSGFAATSQPGPRLPFIQHSQNPRFYHK [GPS2] reaches -0.01 or more?
Reply: not met

Task item: Could you tell me if the measured solubility change mitosis (log2) of MADSELQLVEQRIRSFPDFPTPGVVFRDISPVLKDPASFRAAIGLLARHLKATHGGRIDYIAGLDSRGFLFGPSLAQELGLGCVLIRKRGKLPGPTLWASYSLEYGKAELEIQKDALEPGQRVVVVDDLLATGGTMNAACELLGRLQAEVLECVSLVELTSLKGREKLAPVPFFSLLQYE [APRT] reaches -0.01 or more?
Reply: not met

Task item: Could you tell me if the measured solubility change mitosis (log2) of MDTPLRRSRRLGGLRPESPESLTSVSRTRRALVEFESNPEETREPGSPPSVQRAGLGSPERPPKTSPGSPRLQQGAGLESPQGQPEPGAASPQRQQDLHLESPQRQPEYSPESPRCQPKPSEEAPKCSQDQGVLASELAQNKEELTPGAPQHQLPPVPGSPEPYPGQQAPGPEPSQPLLELTPRAPGSPRGQHEPSKPPPAGETVTGGFGAKKRKGSSSQAPASKKLNKEELPVIPKGKPKSGRVWKDRSKKRFSQMLQDKPLRTSWQRKMKERQERKLAKDFARHLEEEKERRRQEKKQRRAENLKRRLENERKAEVVQVIRNPAKLKRAKKKQLRSIEKRDTLALLQKQPPQQPAAKI [CCDC86] reaches -0.01 or more?
Reply: met

Task item: Could you tell me if the measured solubility change mitosis (log2) of MATKIDKEACRAAYNLVRDDGSAVIWVTFKYDGSTIVPGEQGAEYQHFIQQCTDDVRLFAFVRFTTGDAMSKRSKFALITWIGENVSGLQRAKTGTDKTLVKEVVQNFAKEFVISDRKELEEDFIKSELKKAGGANYDAQTE [COTL1] reaches -0.01 or more?
Reply: met

---

The entries below are paired with their reported thermal stability score.
Test system: HeLa Kyoto
Test: thermal stability score vs G1/S (z-score of summed log2 fold changes over temperatures); higher = more thermally stable than in G1/S
Settings: cell cycle stage: early G1 (4.5 h after nocodazole release)
// keep it numeric: no unit symbol after the value

Task item: # query: thermal stability score of entry MRAVLAREMDGRRVLGRFWSGWRRGLGVRPVPEDAGFGTEARHQRQPRGSCQRSGPLGDQPFAGLLPKNLSREELVDALRAAVVDRKGPLVTLNKPQGLPVTGKPGELTLFSVLPELSQSLGLREQELQVVRASGKESSGLVLLSSCPQTASRLQKYFTHARRAQRPTATYCAVTDGIPAASEGKIQAALKLEHIDGVNLTVPVKAPSRKDILEGVKKTLSHFRVVATGSGCALVQLQPLTVFSSQLQVHMVLQLCPVLGDHMYSARVGTVLGQRFLLPAENNKPQRQVLDEALLRRLHLTPSQAAQLPLHLHLHRLLLPGTRARDTPVELLAPLPPYFSRTLQCLGLRLQ [RPUSD3]
Reply: -1.94

***
Task item: # query: thermal stability score of entry MASLDRVKVLVLGDSGVGKSSLVHLLCQNQVLGNPSWTVGCSVDVRVHDYKEGTPEEKTYYIELWDVGGSVGSASSVKSTRAVFYNSVNGIIFVHDLTNKKSSQNLRRWSLEALNRDLVPTGVLVTNGDYDQEQFADNQIPLLVIGTKLDQIHETKRHEVLTRTAFLAEDFNPEEINLDCTNPRYLAAGSSNAVKLSRFFDKVIEKRYFLREGNQIPGFPDRKRFGAGTLKSLHYD [RABL3]
Reply: -0.0942

Task item: # query: thermal stability score of entry MNMTQARVLVAAVVGLVAVLLYASIHKIEEGHLAVYYRGGALLTSPSGPGYHIMLPFITTFRSVQTTLQTDEVKNVPCGTSGGVMIYIDRIEVVNMLAPYAVFDIVRNYTADYDKTLIFNKIHHELNQFCSAHTLQEVYIELFDQIDENLKQALQKDLNLMAPGLTIQAVRVTKPKIPEAIRRNFELMEAEKTKLLIAAQKQKVVEKEAETERKKAVIEAEKIAQVAKIRFQQKVMEKETEKRISEIEDAAFLAREKAKADAEYYAAHKYATSNKHKLTPEYLELKKYQAIASNSKIYFGSNIPNMFVDSSCALKYSDIRTGRESSLPSKEALEPSGENVIQNKESTG [ERLIN1]
Reply: 1.82
